# System: Plasmodium falciparum
# procedure.details: Inhibition of Plasmodium falciparum protein farnesyltransferase at 5 nM by scintillation proximity assay
Listed below: inhibition values for each entry.

>  <compound>
CCN(CCCCN(C1Cc2cc(C#N)ccc2N(Cc2cncn2C)C1)S(=O)(=O)c1ccccn1)C(=O)OC(C)(C)C (centres undefined)

>  <inhibition (%)>
52

$$$$
>  <compound>
Cn1cnc(CN2CC(N(Cc3ccccc3)S(=O)(=O)c3cn(C)cn3)Cc3cc(-c4ccccc4)ccc32)c1 (centres undefined)

>  <inhibition (%)>
90

$$$$
>  <compound>
Cn1cnc(S(=O)(=O)N(Cc2cccnc2)C2Cc3cc(C#N)ccc3N(Cc3cncn3C)C2)c1 (centres undefined)

>  <inhibition (%)>
89

$$$$
>  <compound>
Cn1cnc(S(=O)(=O)N(CCOc2cccc3c2OCCO3)C2Cc3cc(C#N)ccc3N(Cc3cncn3C)C2)c1 (centres undefined)

>  <inhibition (%)>
91

$$$$
>  <compound>
CN(CCCN(C1Cc2cc(C#N)ccc2N(Cc2cncn2C)C1)S(=O)(=O)c1ccccn1)C(=O)OC(C)(C)C (centres undefined)

>  <inhibition (%)>
80

$$$$
>  <compound>
Cn1cnc(S(=O)(=O)N(CCCCCC(N)=O)C2Cc3cc(C#N)ccc3N(Cc3cncn3C)C2)c1 (centres undefined)

>  <inhibition (%)>
87

$$$$
>  <compound>
Cn1cncc1CN1CC(N(Cc2cccnc2)S(=O)(=O)c2ccccn2)Cc2cc(C#N)ccc21 (centres undefined)

>  <inhibition (%)>
89

$$$$
>  <compound>
Cn1cncc1CN1CC(N(Cc2cccc(-n3cccc3)c2)S(=O)(=O)c2ccccn2)Cc2cc(C#N)ccc21 (centres undefined)

>  <inhibition (%)>
69

$$$$
>  <compound>
COC(=O)c1ccnc(CN(C2Cc3cc(C#N)ccc3N(Cc3cncn3C)C2)S(=O)(=O)c2cn(C)cn2)c1 (centres undefined)

>  <inhibition (%)>
98

$$$$
>  <compound>
Cn1cnc(S(=O)(=O)N(CCc2cccs2)C2Cc3cc(C#N)ccc3N(Cc3cncn3C)C2)c1 (centres undefined)

>  <inhibition (%)>
86

$$$$
>  <compound>
COC(=O)N1CCC(CN(C2Cc3cc(C#N)ccc3N(Cc3cncn3C)C2)S(=O)(=O)c2ccccc2Cl)CC1 (centres undefined)

>  <inhibition (%)>
80

$$$$
>  <compound>
Cn1cncc1CN1CC(N(CC2CCN(C(=O)OC(C)(C)C)CC2)S(=O)(=O)c2ccccn2)Cc2cc(C#N)ccc21 (centres undefined)

>  <inhibition (%)>
89

$$$$
>  <compound>
Cn1cnc(S(=O)(=O)N(Cc2ccc3cccnc3c2)C2Cc3cc(C#N)ccc3N(Cc3cncn3C)C2)c1 (centres undefined)

>  <inhibition (%)>
91

$$$$
>  <compound>
Cn1cnc(S(=O)(=O)N(Cc2ccc(-n3cccc3)cc2)C2Cc3cc(C#N)ccc3N(Cc3cncn3C)C2)c1 (centres undefined)

>  <inhibition (%)>
90

$$$$

Source: ChEMBL document CHEMBL1148785
